The measured values listed here are drawn from the NIST ThermoML archive (doi:10.1016/j.jct.2017.08.004).

In this section we review reported molar heat capacity at constant pressure values for a set of molecules.
Test: molar heat capacity at constant pressure
Conditions: 317.15 K; 101.33 kPa; Crystal; Small sample (50 mg) DSC
The answer is to be given in J/K/mol; state only the numeric part.

Molecule	molar heat capacity at constant pressure (J/K/mol)
OC[C@H](O)C(O)[C@@H](O)CO [L-(-)-arabitol]	224.21

Recorded result, OC[C@@H](O)[C@@H](O)[C@H](O)[C@H](O)CO [D-mannitol] , molar heat capacity at constant pressure: 247.23

Sure, the documented molar heat capacity at constant pressure for OC[C@@H](O)C(O)[C@H](O)CO [D-arabitol] is 217.32

Reported molar heat capacity at constant pressure for OC[C@@H](O)[C@H](O)[C@@H](O)CO [xylitol] was 225.99

Reported molar heat capacity at constant pressure of OC[C@@H](O)[C@@H](O)CO [meso-1,2,3,4-butanetetrol] : 176.88

Lab note: measured molar heat capacity at constant pressure of O[C@H]1[C@H](O)[C@@H](O)[C@H](O)[C@@H](O)[C@H]1O [cis-1,2,3,5-trans-4,6-cyclohexanehexol] was 235
